Target: T1, full-length SARS-CoV-2 nucleocapsid (N) protein (SARS-CoV-2, NC_045512.2 (Wuhan-Hu-1), UniProt P0DTC9)
T1 construct: also called SARS-CoV-2 N protein; SARS-CoV-2 N/D7-Tag; not shown: D7-tag, C-terminal, kept
Assay: BLI
Conditions: one partner purified
Here, each record is paired with measured koff data.

| binder | koff |
| --- | --- |
| N83 (antibody, V domains shown, also called N83 hmAb) VH: QVQLQESGPRLVKSSETLSLTCTVSGGSISSGSYYWNWIRQPAGKGLEWIGRVYISGVTSYNPSLKSRVTISLDISKNQFSLQLTSVTAADSAVYYCARGGMAVGAPLYYYFYGMDVWGQGTTVTVSS VL: DVVMTQSPLSLPVTPGEPASISCRSSQSLLHSNGYNYVDWYLQKPGQSPQLMIYLGSNRASGVPDRFSGSGSGTHFTLKISRVEAEDVGVYYCMQALQTLSITFGQGTRLEIK | 0.00113 s⁻¹ |
| 3B7 (antibody, V domains shown, also called 3B7 hmAb) VH: QMQLVQSGAEVKKPGASVRVSCKVSGYSLTELPMHWVRQAPGKGLEWVGSFDPQDAETTYAQRFQGRVAMTEDTSTDTAYMELSSLRSEDTAVYYCATPAPTIVGVVIYALHIWGQGTMVTVSS VL: EIVLTQSPGTLSLSPGERATLSCRASQRVSDNSLAWYQQKPGQAPSLLIFAASIRAPGIPDRISGTGSGTDFTLTINRLEPEDFVVYFCLQYTTSPPLTFGGGTKLEIK | 0.000689 s⁻¹ |
| N5 (antibody, V domains shown, also called N5 hmAb) VH: QVQLVQSGAEVKKPGSSVKVSCKASGGTFSSYAIGWVRQAPGQGLEWMGAIIPIFGTTIFAQKFQGRVTITADESTTTAYMELSSLRSDDTAVYYCARGGGGVERGVILTRWFDPWGQGTLVTVSS VL: QSVLTQPPSVSAAPGQKVTLSCSGSSSNIGNNHVSWYQQLPGTAPKLLIYDNNKRPSGIPDRFSGSKSGTSATLGITGLQTGDEADYYCGTWDNSLSAGVFGGGTKLTVV | < 1e-07 s⁻¹ |
| N31 (antibody, V domains shown, also called N31 hmAb) VH: QMQLVQSGAEVKKPGSSVKVSCKASGGTFSSYGISWVRQAPGQGLEWMGGIIPILGTANYAQRFQGRIALTADESTSTAYMEVSSLRSEDTAVYYCARGMWSNPPGYCCSYMDVWGKGTTVTVSS VL: EIVLTQSPATLSVSPGERVTLACRASQSLRSKLAWYQQKPGQAPRLLIYDASTRATGFPARFSGSGSGTEFTLTISSLQSEDFAVYYCQQYSNWPRTFGQGTKLEIK | < 1e-07 s⁻¹ |
